# STATED_CONDITIONS: in water, 288.75 K
MEASUREMENT_LABEL: solubility (mole fraction)

Identify the reported solubility (mole fraction) for the following entry. O=S(=O)([O-])c1ccc(Nc2nc(Nc3ccc(/C=C/c4ccc(Nc5nc(Nc6ccc(S(=O)(=O)[O-])cc6)nc(N6CCOCC6)n5)cc4S(=O)(=O)[O-])c(S(=O)(=O)[O-])c3)nc(N3CCOCC3)n2)cc1.[Na+].[Na+].[Na+].[Na+]
0.000757

* * *

# STATED_CONDITIONS: in water, 293.25 K
MEASUREMENT_LABEL: solubility (mole fraction)

Check the records and state solubility (mole fraction) for O=S(=O)([O-])c1ccc(Nc2nc(Nc3ccc(/C=C/c4ccc(Nc5nc(Nc6ccc(S(=O)(=O)[O-])cc6)nc(N6CCOCC6)n5)cc4S(=O)(=O)[O-])c(S(=O)(=O)[O-])c3)nc(N3CCOCC3)n2)cc1.[Na+].[Na+].[Na+].[Na+]
0.00099
